System: Lymphocytes
Test: Chemokine-induced rapid adhesion of lymphocytes to ICAM-1 (LFA-1 ligand)
Assay type: cell-based
Reported Conditions: Homo sapiens, Lymphocyte; [cpd] 100 μM; read-out: Inhibition of Adhesion (%) Lymphocytes (MIP3-β) (converted)
Measurement Type: inhibition at 100 µM (%)
Write down the numeric answer in % and omit the unit.

Use these answered entries as a reference point.
INSERT INTO results (molecular_string, assay_system, observed_measurement) VALUES
  ('COc1ccc(-c2c3n(c4cc(OC)c(OC)cc24)CCNC3)cc1', 'Lymphocytes', 49.1),
  ('COc1ccc(-c2c(C(N)=O)[nH]c3cc(OC)c(OC)cc23)cc1', 'Lymphocytes', 91.8),
  ('COC(=O)c1[nH]c2cc(OC)c(OC)cc2c1-c1ccc(OC)cc1', 'Lymphocytes', 98.6),
  ('COCCn1c(C(=O)OC)c(-c2ccc(OC)cc2)c2cc(OC)c(OC)cc21', 'Lymphocytes', 41.4),
  ('COc1ccc(-c2c(C#N)n(CCN3CCOCC3)c3cc(OC)c(OC)cc23)cc1', 'Lymphocytes', 72.8);

For this compound ( COc1ccc(-c2c(-c3nnco3)[nH]c3cc(OC)c(OC)cc23)cc1 ), measured inhibition at 100 µM is 26.7

----------
Quick list: inhibition at 25 µM per entry.
System: Lymphocytes
Test: Chemokine-induced rapid adhesion of lymphocytes to ICAM-1 (LFA-1 ligand)
Assay type: cell-based
Reported Conditions: Homo sapiens, Lymphocyte; [cpd] 25 μM; read-out: Inhibition of Adhesion (%) Lymphocytes (MIP3-β) (converted)
Lab note: write values as number then unit, every time.

Use these answered entries as a reference point.
INSERT INTO assay_data (molecular_string, measurement_type, observed_measurement) VALUES
  ('COc1ccc(-c2c3n(c4cc(OC)c(OC)cc24)CCNC3)cc1', 'inhibition at 25 µM', '16.7%'),
  ('COc1ccc(-c2c(C#N)n(CCN3CCOCC3)c3cc(OC)c(OC)cc23)cc1', 'inhibition at 25 µM', '0%'),
  ('COC(=O)c1[nH]c2cc(OC)c(OC)cc2c1-c1ccc(OC)cc1', 'inhibition at 25 µM', '60.8%');

For this molecule ( COC(=O)c1c(-c2ccc(OC)cc2)c2cc(OC)c(OC)cc2n1CCN1CCCC1 ), measured inhibition at 25 µM is 45.9%

For this molecule ( COc1ccc(-c2c(C(N)=O)[nH]c3cc(OC)c(OC)cc23)cc1 ), measured inhibition at 25 µM is 30.9%

For this molecule ( CCOC(=O)c1[nH]c2cc(OC)c(OC)cc2c1-c1ccncc1 ), measured inhibition at 25 µM is 4.5%

For this molecule ( COc1ccc(-c2c3n(c4cc(OC)c(OC)cc24)CCOC3)cc1 ), measured inhibition at 25 µM is 30.1%

For this molecule ( COCCn1c(C(=O)OC)c(-c2ccc(OC)cc2)c2cc(OC)c(OC)cc21 ), measured inhibition at 25 µM is 8.2%

For this molecule ( COc1ccc(-c2c(-c3nnco3)[nH]c3cc(OC)c(OC)cc23)cc1 ), measured inhibition at 25 µM is 8.7%

----------
Tested on: PMNs
Test: Chemoattractant-induced rapid adhesion of PMNs to fibrinogen (CR3 ligand)
Type: cell-based
Reported Conditions: Homo sapiens; [cpd] 25 μM; read-out: Inhibition of Adhesion (%) PMNs (fMLP) (converted)
Quick list: inhibition at 25 µM per entry.
Write down the numeric answer in % and omit the unit.

Use these answered entries as a reference point.
INSERT INTO assay_data (molecule, measurement_type, observed_measurement) VALUES
  ('COc1ccc(-c2c3n(c4cc(OC)c(OC)cc24)CCNC3)cc1 [Example 28]', 'inhibition at 25 µM', 34.7),
  ('COc1ccc(-c2c(C(N)=O)[nH]c3cc(OC)c(OC)cc23)cc1 [Example 14]', 'inhibition at 25 µM', 62.8),
  ('COC(=O)c1c(-c2ccc(OC)cc2)c2cc(OC)c(OC)cc2n1CCN1CCCC1 [Example 52]', 'inhibition at 25 µM', 0.8),
  ('COc1ccc(-c2c(-c3nnco3)[nH]c3cc(OC)c(OC)cc23)cc1 [Example 26]', 'inhibition at 25 µM', 34.7),
  ('CCOC(=O)c1[nH]c2cc(OC)c(OC)cc2c1-c1ccncc1 [Example 81]', 'inhibition at 25 µM', 14.4);

For this molecule ( COc1ccc(-c2c(C#N)n(CCN3CCOCC3)c3cc(OC)c(OC)cc23)cc1 [Example 56] ), measured inhibition at 25 µM is 3.4

For this molecule ( COCCn1c(C(=O)OC)c(-c2ccc(OC)cc2)c2cc(OC)c(OC)cc21 [Example 39] ), measured inhibition at 25 µM is 33.8

For this molecule ( COC(=O)c1[nH]c2cc(OC)c(OC)cc2c1-c1ccc(OC)cc1 [Example 1] ), measured inhibition at 25 µM is 72.9

For this molecule ( COc1ccc(-c2c3n(c4cc(OC)c(OC)cc24)CCOC3)cc1 [Example 76] ), measured inhibition at 25 µM is 25.6
